Biological target: SARS-CoV-2 full length spike protein, V483A mutant, expressed on CHO cells (SARS-CoV-2, UniProt P0DTC2 14-1273)
Property Label: median fluorescence intensity, fold over isotype control

Binder: antibody 476 (antibody, V domains shown) VH: QVQLVQSGSELKKPGASVKVSCKASGYTFTSYAMNWVRQAPGQGLEWMGWINTNTGNPTYAQGFTGRFVFSLDTSVSTAYLQISSLKAEDTGVYYCARDHELPNSSSWFGHFEYWGQGTLVTVSS VL: SYELTQPPSVSVSPGQTARITCSGDALPKQYAYWYQQKAGQAPVLVIYKDSERRSGIPERFSGSSSGTTVTLTISGVQAEDEADYYCQSADSSGTSVVFGGGTKLTVL
Experimental Value: 14.1 fold over isotype
--
Binder: antibody 497 (antibody, V domains shown) VH: QVQLQESGPGLVKPSQTLSLTCTVSGGSINSFGYYWSWIRQHPGKGLEWIGYIYYSGSTDYNPSLNSRVTISLDTSKNQFLLKLTSVTAADTAVYYCAKLTDYYDSSGYSFDYWGQGTLVTVSS VL: DIQMTQSPSSVSASVGDRVTITCRASQDISRWLAWYQQKPGKAPKLLIYAASSLQSGVPSRFSGRGSGTELTLTISSLQPEDFATYFCQQAYSFPFTFGGGTKVEIK
Experimental Value: 22.2 fold over isotype
--
Binder: antibody 510 (antibody, V domains shown) VH: QVQLQESGPGLVKPSQTLSLTCTVSGGSISSGSYYWSWIRQPAGKGLEWIGRIYTSGSTNYNPSLKSRVTISVDTSKNQFSLKLSSVTAADTAVYYCAREGQWLYRFDYWGQGTLVTVSS VL: QSALTQPASVSGSPGQSITISCTGTSSDVGNYDLVSWYQQHPGKAPKLVIYGVTKRPSGVSNRFSGSKSGNTASLTISGLQAEDEADYYCCSYATGDTSVFGTGTKVTVL
Experimental Value: 1.06 fold over isotype
